# credit: the RNAGym collection of RNA variant scans (doi:10.1038/s41586-018-0170-7)

B1: tRNA (parent)
chain: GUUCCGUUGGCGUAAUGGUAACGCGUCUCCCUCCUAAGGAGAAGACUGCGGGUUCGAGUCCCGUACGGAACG

Variants of: B1
EXPERIMENT SUMMARY: yeast fitness, log relative to wild type (ln ratio); higher = fitter; tRNA-Arg(CCU), competitive growth, 37 C, 1 M NaCl
Please use condition met whenever yeast fitness (ln) is not below -0.3, and condition not met whenever it is.

[
  {
    "MUTATION LIST": "G1A G6U C27U C46U C66A A69G C71U",
    "CAT": "condition met"
  },
  {
    "MUTATION LIST": "G1A U2G C27U C66U A69G C71U",
    "CAT": "condition not met"
  },
  {
    "MUTATION LIST": "U2C A43C C46U C66U A70G",
    "CAT": "condition met"
  },
  {
    "MUTATION LIST": "G1A C27U A43C",
    "CAT": "condition met"
  },
  {
    "MUTATION LIST": "G1A U2G A43C C46U A69G A70U C71U",
    "CAT": "condition met"
  },
  {
    "MUTATION LIST": "G1A U2C G6U A43C C66U A69G A70G C71U",
    "CAT": "condition not met"
  },
  {
    "MUTATION LIST": "G1A U2C C46U A69G C71U",
    "CAT": "condition met"
  },
  {
    "MUTATION LIST": "U2G G6U C27U A43C C66A A69G C71U",
    "CAT": "condition not met"
  },
  {
    "MUTATION LIST": "U2C G6U A43C C46U C66U A69G A70U C71U",
    "CAT": "condition not met"
  },
  {
    "MUTATION LIST": "G1A U2C G6A C27U C46U A70G C71U",
    "CAT": "condition met"
  },
  {
    "MUTATION LIST": "U2G G6A A70G C71U",
    "CAT": "condition met"
  },
  {
    "MUTATION LIST": "U2G C27U C46U A69G A70G C71U",
    "CAT": "condition met"
  },
  {
    "MUTATION LIST": "G1A G6A C46U C66U A69G A70U",
    "CAT": "condition met"
  },
  {
    "MUTATION LIST": "U2G G6A C27U A43C C46U C66U A70G C71U",
    "CAT": "condition met"
  },
  {
    "MUTATION LIST": "G1A G6A C27U A43C C46U A70U C71U",
    "CAT": "condition met"
  },
  {
    "MUTATION LIST": "G1A C27U C66U C71U",
    "CAT": "condition not met"
  },
  {
    "MUTATION LIST": "G1A G6U A43C C46U A69G C71U",
    "CAT": "condition met"
  },
  {
    "MUTATION LIST": "G6A C27U A43C C46U C66A A70U C71U",
    "CAT": "condition not met"
  },
  {
    "MUTATION LIST": "G6U A43C C66U A70G C71U",
    "CAT": "condition not met"
  },
  {
    "MUTATION LIST": "U2G G6U A43C C71U",
    "CAT": "condition met"
  },
  {
    "MUTATION LIST": "G1A G6A A43C C46U C66U A70G C71U",
    "CAT": "condition not met"
  },
  {
    "MUTATION LIST": "G6A A43C C46U A70G",
    "CAT": "condition met"
  },
  {
    "MUTATION LIST": "G6A C27U A43C A69G A70U C71U",
    "CAT": "condition met"
  },
  {
    "MUTATION LIST": "G1A C27U A43C C66A A70U C71U",
    "CAT": "condition not met"
  },
  {
    "MUTATION LIST": "G1A U2G G6U C27U A43C C46U C66U C71U",
    "CAT": "condition not met"
  },
  {
    "MUTATION LIST": "G1A G6U A43C C46U C66A A70U",
    "CAT": "condition met"
  },
  {
    "MUTATION LIST": "U2C C27U A43C C66U A70U",
    "CAT": "condition met"
  },
  {
    "MUTATION LIST": "G1A U2G G6U C46U C66A A69G A70U",
    "CAT": "condition met"
  },
  {
    "MUTATION LIST": "G1A G6A C27U C46U A70U",
    "CAT": "condition met"
  },
  {
    "MUTATION LIST": "U2C G6U C46U A69G A70U",
    "CAT": "condition met"
  },
  {
    "MUTATION LIST": "G1A G6A C46U C66U A69G",
    "CAT": "condition not met"
  },
  {
    "MUTATION LIST": "G1A U2G A43C C66A A70U C71U",
    "CAT": "condition not met"
  },
  {
    "MUTATION LIST": "U2G G6A A43C C46U C66A",
    "CAT": "condition met"
  },
  {
    "MUTATION LIST": "C27U C66A A69G C71U",
    "CAT": "condition met"
  },
  {
    "MUTATION LIST": "G1A U2G G6A C27U A43C C46U C66U A69G A70G C71U",
    "CAT": "condition not met"
  },
  {
    "MUTATION LIST": "U2G C27U C66A A69G A70U C71U",
    "CAT": "condition not met"
  },
  {
    "MUTATION LIST": "U2C G6U A70G C71U",
    "CAT": "condition met"
  },
  {
    "MUTATION LIST": "G1A U2G G6U C46U C66A",
    "CAT": "condition met"
  },
  {
    "MUTATION LIST": "G1A U2G G6A A43C C66U A69G A70U",
    "CAT": "condition not met"
  },
  {
    "MUTATION LIST": "G1A G6A C46U A69G A70G",
    "CAT": "condition met"
  },
  {
    "MUTATION LIST": "G1A U2G G6A C27U A43C C46U",
    "CAT": "condition met"
  },
  {
    "MUTATION LIST": "G1A U2G G6A C27U C46U C66A A70G C71U",
    "CAT": "condition met"
  },
  {
    "MUTATION LIST": "G1A U2C G6U C27U C46U C66A A70G C71U",
    "CAT": "condition met"
  },
  {
    "MUTATION LIST": "U2C G6A C27U C46U C66U A69G A70U C71U",
    "CAT": "condition met"
  },
  {
    "MUTATION LIST": "G1A U2G G6U C66U C71U",
    "CAT": "condition met"
  }
]
